- target: T1, Human MAGEB2 (Melanoma-associated antigen B2) (human, UniProt O15479 1-319)
- T1 construct: Intracellular antigen detected by IHC in FFPE material: CHO cells transfected with human MAGEB2 (mCherry vector with Myc/DDK tags, or ORF without tags)
- T1 sequence: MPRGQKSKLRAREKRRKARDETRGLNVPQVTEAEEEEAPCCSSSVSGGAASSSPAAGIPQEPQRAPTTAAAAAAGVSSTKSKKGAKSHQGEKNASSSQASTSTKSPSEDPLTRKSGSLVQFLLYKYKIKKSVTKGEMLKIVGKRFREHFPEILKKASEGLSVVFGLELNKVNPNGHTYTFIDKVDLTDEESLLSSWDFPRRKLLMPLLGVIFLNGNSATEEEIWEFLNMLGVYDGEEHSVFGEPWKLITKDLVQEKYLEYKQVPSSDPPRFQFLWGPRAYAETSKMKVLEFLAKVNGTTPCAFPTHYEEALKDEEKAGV
- assay.procedure: IHC on FFPE KMM-1 cells (endogenous MAGEB2)
parameter: IHC % Frequency (%)

[[record]]
binder = "1C3 (antibody, V domains shown, also called MAGE-B2 (IC3); anti-MAGEB2 antibody 1C3) VH: QSLEESGGGLVQPEGSLTLTCTAFGVTLTNYYICWVRQAPGKGLEWVGCIDNANGRTYYASWAKGRFTISKTSSTTGTLQMTSLTAADTATYFCARSLATPLWGPGTLVTVSS VL: DIVMTQTPSSVEAAVGGTVTIKCQASQNISSYLAWYQQKPGQPPKLLIYRASTLASGVPSRFKGSGSGTQFTLTISDLECADAATYYCQSYDDSRSSNFFYAFGGGTEVVVKG"
recorded_value = 70

[[record]]
binder = "1I14 (antibody, V domains shown, also called MAGE-B2 (1i14)) VH: QSVEESGGRLVTPGTPLTLTCTISGFSLSSYAMSWVRQAPGKGLEWIGSIGGGGSAVYASWAKGRFTISKTSTTVDLRITSPTTEDTAMYFCGRGFYSIDLWGPGTLVTVSS VL: DVVMTQTPASVEATVGGTVTIKCQSSQSVYDNNALAWYQQNAGQRPRLLIYGASTLASGVPSRFSASGSGTEFTLTISDLECADAATYYCQCTYYVSSYQNDFGGGTEVVVKG"
recorded_value = 70

[[record]]
binder = "4G17 (antibody, IgG1, V domains shown, Rabbit monoclonal IgG1; Tested as supernatant and as small batch purified antibody; also called MAGE-B2 (4G17); anti-MAGEB2 antibody 4G17) VH: QSLEESGGGLVQPEGSLTLTCTASGVTLSNYYICWVRQAPGKGLEWIGCIDNVNGRTYYASWAKGRFTISKTSSTTGTLQMTSLTAADTATYFCARSLATPLWGPGTLVTVSS VL: DIVMTQTPASVEAAVGGTVTIKCQASQNIDSYLAWYQQKPGQPPKLLIYRASTLASGVPSRFKGSGSGTEFTLTISDLECADAATYYCQSYDDSRSSSFFYGFGGGTEVVVK"
recorded_value = 70

